Tested on: pS6K1 T389 and pAkt S473 in PC3 cells
Run Description: Western blot based pS6K1 and pAKT assay at 24 and 48 hour timepoints
Assay type: cell-based
Description: Example 57: Western Blot Based pS6K1 and pAKT Assay at 24 and 48 Hour Timepoints Assay Protocol: • 1. Seed six well plate with 500,000 PC3 cells per well and incubate for 20˜24 hour. • 2. Add compounds into the cell plate. Incubate for 24 to 48 hours. • 4. Plate is placed on ice and the media is removed via aspiration. […] Protein concentration of resulting cell lysates were quantified utilizing a Bradford assay and the samples run analyzed via Western blot on 4-12% Bis/Tris gels with 1×MES buffer. • 8. […]

Molecule	mTORC1 selective @ 24 hrs
CO[C@@H]1/C(C)=C/[C@@H](C)C(=O)C[C@@H]([C@H](C)C[C@@H]2CC[C@@H](OCCCO)[C@H](OC)C2)OC(=O)[C@@H]2CCCCN2C(=O)C(=O)[C@]2(O)O[C@@H](CC[C@H]2C)C[C@H](OCCOC2COC2)/C(C)=C/C=C/C=C/[C@@H](C)C[C@@H](C)C(=O)[C@@H]1OC [I-45]	Yes
COCCO[C@@H]1CC[C@@H](C[C@@H](C)[C@@H]2CC(=O)[C@H](C)/C=C(\C)[C@@H](OC)[C@@H](OC)C(=O)[C@H](C)C[C@H](C)/C=C/C=C/C=C(\C)[C@@H](OCCOC3COC3)C[C@@H]3CC[C@@H](C)[C@@](O)(O3)C(=O)C(=O)N3CCCC[C@H]3C(=O)O2)C[C@H]1OC [I-83]	No
COCCS(=O)(=O)CCO[C@H]1C[C@@H]2CC[C@@H](C)[C@@](O)(O2)C(=O)C(=O)N2CCCC[C@H]2C(=O)O[C@H]([C@H](C)C[C@@H]2CC[C@@H](OC)[C@H](OC)C2)CC(=O)[C@H](C)/C=C(\C)[C@@H](OC)[C@@H](OC)C(=O)[C@H](C)C[C@H](C)/C=C/C=C/C=C/1C [I-43]	Yes

###

Test system: p-p70 S6 Kinase (Thr389) in MCF-7 cells
Run Description: AlphaLISA Ultra pS6K1 assay
Type: cell-based
Conditions: Homo sapiens, 1.5 h; MCF7 cells, 90 min
pIC50: −log10 of the molar value.
I'd be grateful if you could share measured pIC50 for these entries.

Query :: Short answer please: pIC50, p-p70 S6 Kinase (Thr389) in MCF-7 cells, entry COCCO[C@@H]1CC[C@@H](C[C@@H](C)[C@@H]2CC(=O)[C@H](C)/C=C(\C)[C@@H](O)[C@@H](OC)C(=O)[C@H](C)C[C@H](C)/C=C/C=C/C=C(\C)C(OC[C@H]3COCCO3)C[C@@H]3CC[C@@H](C)[C@@](O)(O3)C(=O)C(=O)N3CCCC[C@H]3C(=O)O2)C[C@H]1OC (stereo partly drawn)
Result :: 8.00 to 9.00

Query :: Moving on to the next compound: COCCO[C@@H]1CC[C@@H](C[C@@H](C)[C@@H]2CC(=O)[C@H](C)/C=C(\C)[C@@H](OC)[C@@H](OC)C(=O)[C@H](C)C[C@H](C)/C=C/C=C/C=C(\C)[C@@H](OCCOCCOC3COC3)C[C@@H]3CC[C@@H](C)[C@@](O)(O3)C(=O)C(=O)N3CCCC[C@H]3C(=O)O2)C[C@H]1OC
Result :: ≤ 6.00

Query :: Moving on to the next compound: CO[C@@H]1C[C@H](C[C@@H](C)[C@@H]2CC(=O)[C@H](C)/C=C(\C)[C@@H](O)[C@@H](OC)C(=O)[C@H](C)C[C@H](C)/C=C/C=C/C=C(\C)[C@H](OCCOC3COC3)C[C@@H]3CC[C@@H](C)[C@@](O)(O3)C(=O)C(=O)N3CCCC[C@H]3C(=O)O2)CC[C@H]1OC(=O)NCCN1CCOCC1
Result :: 8.00 to 9.00

###

Test system: p-p70 S6 Kinase (Thr389) in MCF-7 cells
Run Description: AlphaLISA Ultra pS6K1 assay
Format: cell-based
Conditions: Homo sapiens, 1.5 h; MCF7 cells, 90 min
pIC50: −log10 of the molar value.
Quantity: pIC50

Query :: Bench note: what pIC50 did CO[C@@H]1C[C@H](C[C@@H](C)[C@@H]2CC(=O)[C@H](C)/C=C(\C)[C@@H](O)[C@@H](OC)C(=O)[C@H](C)C[C@H](C)/C=C/C=C/C=C(\C)[C@@H](OCC3COCCO3)C[C@@H]3CC[C@@H](C)[C@@](O)(O3)C(=O)C(=O)N3CCCC[C@H]3C(=O)O2)CC[C@H]1OC(F)F (stereo partly shown) [I-9] show?
Result :: 8.00 to 9.00

Query :: Moving on to the next compound: CO[C@@H]1/C(C)=C/[C@@H](C)C(=O)C[C@@H]([C@H](C)C[C@@H]2CC[C@@H](OC)[C@H](OC)C2)OC(=O)[C@@H]2CCCCN2C(=O)C(=O)[C@]2(O)O[C@@H](CC[C@H]2C)CC(OCCOC2COC2)/C(C)=C/C=C/C=C/[C@@H](C)C[C@@H](C)C(=O)[C@@H]1OC (stereo partly shown) [I-50]
Result :: 8.00 to 9.00

Query :: Moving on to the next compound: CO[C@@H]1/C(C)=C/[C@@H](C)C(=O)C[C@@H]([C@H](C)C[C@@H]2CC[C@@H](OC)[C@H](OC)C2)OC(=O)[C@@H]2CCCCN2C(=O)C(=O)[C@]2(O)O[C@@H](CC[C@H]2C)CC(OCCOCCN)/C(C)=C/C=C/C=C/[C@@H](C)C[C@@H](C)C(=O)[C@@H]1OC (stereo partly shown) [I-22]
Result :: 6.00 to 7.00

Query :: Moving on to the next compound: COCCOCCO[C@H]1C[C@@H]2CC[C@@H](C)[C@@](O)(O2)C(=O)C(=O)N2CCCC[C@H]2C(=O)O[C@H]([C@H](C)C[C@@H]2CC[C@@H](OCCOC)[C@H](OC)C2)CC(=O)[C@H](C)/C=C(\C)[C@@H](OC)[C@@H](OC)C(=O)[C@H](C)C[C@H](C)/C=C/C=C/C=C/1C [I-47]
Result :: 8.00 to 9.00

###

Test system: p-p70 S6 Kinase (Thr389) in MCF-7 cells
Run Description: AlphaLISA Ultra pS6K1 assay
Type: cell-based
Conditions: Homo sapiens, 1.5 h; MCF7 cells, 90 min
Quantity: IC50

Query :: Short answer please: IC50, p-p70 S6 Kinase (Thr389) in MCF-7 cells, entry CO[C@@H]1/C(C)=C/[C@@H](C)C(=O)C[C@@H]([C@H](C)C[C@@H]2CC[C@@H](OCCO)[C@H](OC)C2)OC(=O)[C@@H]2CCCCN2C(=O)C(=O)[C@]2(O)O[C@@H](CC[C@H]2C)CC(OCCOCCN)/C(C)=C/C=C/C=C/[C@@H](C)C[C@@H](C)C(=O)[C@@H]1OC (stereo partly drawn)
Result :: 100 to 1000 nM

Query :: Moving on to the next molecule: CO[C@@H]1C[C@H](C[C@@H](C)[C@@H]2CC(=O)[C@H](C)/C=C(\C)[C@@H](O)[C@@H](OC)C(=O)[C@H](C)C[C@H](C)/C=C/C=C/C=C(\C)[C@@H](OC[C@@H]3COCCO3)C[C@@H]3CC[C@@H](C)[C@@](O)(O3)C(=O)C(=O)N3CCCC[C@H]3C(=O)O2)CC[C@H]1OCCO
Result :: 1 to 10 nM

Query :: Moving on to the next molecule: CO[C@@H]1/C(C)=C/[C@@H](C)C(=O)C[C@@H]([C@H](C)C[C@@H]2CC[C@@H](OCCO)[C@H](OC)C2)OC(=O)[C@@H]2CCCCN2C(=O)C(=O)[C@]2(O)O[C@@H](CC[C@H]2C)C[C@H](OCCOCCOC2COC2)/C(C)=C/C=C/C=C/[C@@H](C)C[C@@H](C)C(=O)[C@@H]1OC
Result :: 100 to 1000 nM

###

System: p-p70 S6 Kinase (Thr389) in MCF-7 cells
Run Description: AlphaLISA Ultra pS6K1 assay
Assay type: cell-based
Conditions: Homo sapiens, 1.5 h; MCF7 cells, 90 min
Quantity: IC50

Query :: Bench note: what IC50 did COCCO[C@@H]1CC[C@@H](C[C@@H](C)[C@@H]2CC(=O)[C@H](C)/C=C(\C)[C@@H](O)[C@@H](OC)C(=O)[C@H](C)C[C@H](C)/C=C/C=C/C=C(\C)[C@@H](OC[C@H]3COCCO3)C[C@@H]3CC[C@@H](C)[C@@](O)(O3)C(=O)C(=O)N3CCCC[C@H]3C(=O)O2)C[C@H]1OC show?
Result :: 1 to 10 nM

Query :: Moving on to the next molecule: COCCOCCO[C@@H]1C[C@@H]2CC[C@@H](C)[C@@](O)(O2)C(=O)C(=O)N2CCCC[C@H]2C(=O)O[C@H]([C@H](C)C[C@@H]2CC[C@@H](OCCO)[C@H](OC)C2)CC(=O)[C@H](C)/C=C(\C)[C@@H](OC)[C@@H](OC)C(=O)[C@H](C)C[C@H](C)/C=C/C=C/C=C/1C
Result :: 1 to 10 nM

Query :: Moving on to the next molecule: COCCOCCO[C@@H]1C[C@@H]2CC[C@@H](C)[C@@](O)(O2)C(=O)C(=O)N2CCCC[C@H]2C(=O)O[C@H]([C@H](C)C[C@@H]2CC[C@@H](OP(C)(C)=O)[C@H](OC)C2)CC(=O)[C@H](C)/C=C(\C)[C@@H](OC)[C@@H](OC)C(=O)[C@H](C)C[C@H](C)/C=C/C=C/C=C/1C
Result :: 1 to 10 nM

Each recorded value in this set is attributed to patent US20220267352A1.
